# assay-target: Bcl-xL, Q07817
# Sequence (Q07817 1-209): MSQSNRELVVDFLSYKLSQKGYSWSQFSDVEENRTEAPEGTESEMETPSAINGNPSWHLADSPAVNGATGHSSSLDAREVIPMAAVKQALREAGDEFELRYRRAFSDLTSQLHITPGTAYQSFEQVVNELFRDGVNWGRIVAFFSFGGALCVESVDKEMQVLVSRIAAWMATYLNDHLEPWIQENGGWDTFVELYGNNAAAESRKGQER
# assay-notes: peptide SPOT array, c-Myc-tagged receptor at 1 uM or 100 nM, anti-c-Myc-Cy3
readout: SPOT signal as a fraction of Bim BH3's signal on the same receptor and array
Response field accepts a number only; no unit should be typed.

See these solved cases before continuing.
ILRHKDIIDDLVKSGHKIMTACSEEE [DST] = 0.03
NRKGEKNGKGLRHFLMKVCEKVQRKG [TFDP1] = 0.42
KKCQDMIMTELTNAGDDVVVFYNDKA [ITPR3] = 0.02
FSVDLNASRSLSQVAMDLHEAVSMKL [DCST2] = 0.03

Q: Identify measured SPOT signal as a fraction of Bim BH3's signal on the same receptor and array associated with RQKIQRTARKLFGLSVRCRHNPNHQL [DBC1]
A: 0.69

Q: Identify measured SPOT signal as a fraction of Bim BH3's signal on the same receptor and array associated with SQGKHGFTMADNAFGDMTNEEFRQMM [CTSL2]
A: 0.06
